System: Human Plasma
protocol-summary: Anticoagulation in human plasma, thrombin time (TT)
Format: biochemical
condition-description: concentration required to double the thrombin time
endpoint-label: 2 × Clotting time, TT (ng/mL)

• Cl.NC(N)=NCCCC(C=O)NC(=O)C1CCCN1C(=O)C(CC1CCCCC1)NC(=O)c1ccc2ccccc2n1 (stereo not drawn) = 97
• Cl.N=C(N)NCCC[C@@H](C=O)NC(=O)[C@@H]1CCCN1C(=O)[C@@H](Cc1ccccc1)NC(=O)C1CCCCC1 [Example 27, cyclohexyl-CO-D-Phe-Pro-Arg-H.HCl] = 63
• Cl.N=C(N)NCCC[C@@H](C=O)NC(=O)[C@@H]1CCCN1C(=O)[C@@H](Cc1ccccc1)NC(=O)c1cccnc1 [Example 3, N-Nicotinoyl-D-Phe-Pro-Arg-H.HCl] = 47
• Cl.NC(N)=NCCCC(C=O)NC(=O)C1CCCN1C(=O)C(Cc1ccccc1)NC(=O)c1ccc2ccccc2n1 (stereo not drawn) = 35
• CCOC(=O)N[C@H](Cc1ccccc1)C(=O)N1CCC[C@H]1C(=O)N[C@H](C=O)CCCNC(=N)N.Cl [Example 33, EtOCO-D-Phe-Pro-Arg-H.HCl] = 22
• Cl.N=C(N)NCCC[C@@H](C=O)NC(=O)[C@@H]1CCCN1C(=O)[C@@H](Cc1ccccc1)NCC1CCCCC1 [Example 30, cyclohexyl-CH2 -D-phe-pro-Arg-H.HCl] = 16
• CC(=O)N[C@H](Cc1ccccc1)C(=O)N1CCC[C@H]1C(=O)N[C@H](C=O)CCCN=C(N)N.Cl [Example 23, Ac-D-Phe-Pro-Arg-H.HCl] = 140
• CCS(=O)(=O)N[C@@H](C(=O)N1CCC[C@H]1C(=O)N[C@H](C=O)CCCNC(=N)N)c1ccccc1.Cl [Example 20, EtSO2 -D-Phg-Pro-Arg-H.HCl] = 34
• COc1ccc(OC)c(S(=O)(=O)N[C@H](Cc2ccccc2)C(=O)N2CCC[C@H]2C(=O)N[C@H](C=O)CCCNC(=N)N)c1.Cl [Example 15, 2,5-(MeO)2 -PhSO2 -D-Phe-Pro-Arg-H-HCl] = 92
• Cl.NC(N)=NCCCC(C=O)NC(=O)C1CCCN1C(=O)C(Cc1ccccc1)NC(=O)Cc1cccnc1 (stereo not drawn) = 150
• Cl.N=C(N)NCCC[C@@H](C=O)NC(=O)[C@@H]1CCCN1C(=O)[C@@H](Cc1ccccc1)NC(=O)C(F)(F)F [Example 25, CF3 CO-D-Phe-Pro-Arg-H.HCl] = 59
• Cl.N=C(N)NCCC[C@@H](C=O)NC(=O)[C@@H]1CCCN1C(=O)[C@@H](Cc1ccccc1)NC(=O)Cc1ccccc1 [Example 26, PhCH2 CO-D-Phe-Pro-Arg-H.HCl] = 64
